Test: p53 small molecule agonists, cell-based qHTS assay: qHTS cell viability counter screen (AID 1963581); note: nearly all actives have a fitted effect of over 45% in size
Details: p53RE-bla HCT-116 viability, ATP luminescence, 16 h; series mostly up to 66 µM
Inconclusive results are not listed. The source made the active and inactive calls. Calls come from the whole dose curve.
Respond only with the outcome that fits, drawn from active, inactive

MOLECULE	LABEL
Cc1cnc(C2=NC(C)(C(C)C)C(=O)N2)c(C(=O)O)c1 (centres undefined)	inactive

Name the outcome recorded for N[C@@H](Cc1ccc(N(CCCl)CCCl)cc1)C(=O)O in the assay.
inactive

Hello, I am checking results. What call was entered for O=[N+]([O-])O[C@H]1CO[C@H]2[C@@H]1OC[C@H]2O[N+](=O)[O-] ?
inactive

Record request — test call for Nc1nc(N)nc(Cl)n1
inactive

Recorded call for CC(C)(O)C(Cl)(Cl)Cl ?
inactive

What did the test return for O=C(Cl)OCCOCCOC(=O)Cl ?
inactive

---

Test: p53 small molecule agonists, cell-based qHTS assay with human liver microsomes (AID 1963577);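 note: p53 response element beta-lactamase reporter cells with liver microsomes plus NADPH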
Details: HCT-116 p53RE-bla with human liver microsomes, ratio, 16 h; series mostly up to 66 µM
Excerpt: National Center for Advancing Translational Sciences [NCATS] Division of Preclinical Innovation [DPI] U.S. Environmental Protection Agency [EPA] National Institutes of Environmental Health Sciences [NIEHS] National Toxicology Program [NTP] U.S. Food and Drug Administration [FDA] p53, a tumor suppressor protein, is activated following cellular insult, including DNA damage and other cellular stresses. […] The activation of the reporter gene under culture conditions can be detected by fluorescence intensity. […]
Records with an inconclusive call do not appear. Activity calls are given as the source filed them. Calls come from the whole dose curve.
ENDPOINT_LABEL: outcome

// worked examples, outcome included
COMPOUND	outcome
CC(C)C(C)(N)C#N (stereo not given)	inactive
C[C@H]1C(=O)O[C@@H]2CCN3CC=C(COC(=O)[C@](C)(O)[C@]1(C)O)[C@H]23	inactive
CNC(=O)NC(O)C(Cl)(Cl)Cl (stereo not given)	inactive
O=C(O)CC(O)(CC(=O)O)C(=O)O	inactive

Below: the item to evaluate.
Dear colleague, I am looking for the recorded outcome of the following compound: O=C(O)c1nn(Cc2ccc(Cl)cc2Cl)c2ccccc12
inactive

---

Target: 5-hydroxytryptamine receptor 2A (Homo sapiens)
Assay: 5-hydroxytryptamine receptor 2A (HTR2A) small molecule agonists, cell-based qHTS assay (AID 1963587); note: nearly all actives have a fitted effect of over 30% in size
Conditions: HTR2A-CHO cells, calcium flux fluorescence, agonist mode; series mostly up to 76.8 µM
Results filed as inconclusive are left out. Activity calls are given as the source filed them. Calls follow the shape of the full dose curve.
Outcome field: choose from active, inactive

CCCCCCCCCCCC[N+](C)(C)CCOc1ccccc1 active
C1CS1 inactive

In this assay, the call recorded for ClCc1ccccn1 was what?
inactive

Field: outcome | Entry: CCN(N=O)C(N)=O
inactive

Hi team, can someone confirm the assay call for Cn1cc(-c2ccccc2)c(=O)c(-c2cccc(C(F)(F)F)c2)c1 ?
inactive

# outcome recorded in this test, key = CNC(=O)O/N=C/C(C)(C)S(C)(=O)=O
inactive

Please share the test call associated with CCN(CC)C(=O)SCc1ccc(Cl)cc1 .
inactive

Short answer needed: outcome of this test for CCCCOP(=O)(CCCC)OCCCC ?
active

Hi team, can someone confirm the assay call for O=c1[nH]c(=O)[nH]c(=O)[nH]1 ?
inactive

Please let me know the test result on file for CCc1ccccc1C .
inactive

Tell me the recorded outcome of this test for CCOP(=O)(OCC)OP(=O)(OCC)OCC .
inactive
